# target-or-test-system: T1, NHP2L1 (15.5K), His-tagged (UniProt P55769 1-128)
# T1 sequence: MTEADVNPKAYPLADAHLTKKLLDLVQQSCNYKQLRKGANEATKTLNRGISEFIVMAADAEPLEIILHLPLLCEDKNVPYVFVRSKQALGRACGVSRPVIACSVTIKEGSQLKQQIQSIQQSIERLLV
# assay-procedure: TR-FRET
pKd: −log10 of the molar value.

{"columns": ["binder", "pKd"],
 "data": [
  ["AUCGUAGCCAAUGAGGUUUAUCCGAGGCGCGAU (structured_RNA) [Cy5-U4 5'SL]", 9.17]
]}
